Molecular target: myoc-OLF (Homo sapiens, UniProt Q99972)
Sequence (Q99972 244-503 limits assumed): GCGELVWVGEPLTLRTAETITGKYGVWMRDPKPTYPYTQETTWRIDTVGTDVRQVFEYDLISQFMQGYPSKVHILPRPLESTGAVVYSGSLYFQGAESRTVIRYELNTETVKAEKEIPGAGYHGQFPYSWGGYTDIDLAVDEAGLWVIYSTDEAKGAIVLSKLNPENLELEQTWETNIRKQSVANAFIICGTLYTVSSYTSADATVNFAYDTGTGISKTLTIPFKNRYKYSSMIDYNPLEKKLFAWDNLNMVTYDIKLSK
Experiment: Differential scanning fluorimetry
Assay type: binding
Conditions: DSF; hits at concentrations used for screening
ΔTm values by entry

# count of solved cases: 2
INSERT INTO measurements (compound, readout_value) VALUES
  ('O=C(CCc1ccc(O)cc1)c1c(O)cc(O)cc1O [Phloretin]', '1.2 ± 0.0 °C'),
  ('O=c1c(O)c(-c2cc(O)c(O)c(O)c2)oc2cc(O)cc(O)c12 [Myricetin]', '1.7 ± 0.0 °C');

Please look at O=c1c(O)c(-c2ccc(O)cc2O)oc2cc(O)cc(O)c12 [Morin] and tell me its recorded ΔTm on myoc-OLF (Homo sapiens, UniProt Q99972).
−0.4 ± 0.4 °C

Please look at O=C(O)C1=CC(=C(c2ccc(O)c(C(=O)O)c2)c2ccc(O)c(C(=O)O)c2)C=CC1=O [Aurintricarboxilic acid, Aurintricarboxylic acid] and tell me its recorded ΔTm on myoc-OLF (Homo sapiens, UniProt Q99972).
0.3 ± 0.2 °C

Please look at O=C(Nc1ccc([N+](=O)[O-])cc1Cl)c1cc(Cl)ccc1O [Niclosamide] and tell me its recorded ΔTm on myoc-OLF (Homo sapiens, UniProt Q99972).
0.0 ± 0.2 °C

Please look at Oc1cc(O)cc(/C=C/c2ccc(O)c(O)c2)c1 [Piceatannol] and tell me its recorded ΔTm on myoc-OLF (Homo sapiens, UniProt Q99972).
−0.4 ± 0.1 °C

Please look at O=C1Nc2ccc(I)cc2C1=Cc1cc(Br)c(O)c(Br)c1 [GW5074] and tell me its recorded ΔTm on myoc-OLF (Homo sapiens, UniProt Q99972).
0.2 ± 0.0 °C

Please look at CC(C)(C)c1cc(/C=C(\C#N)C(N)=S)cc(C(C)(C)C)c1O [Tyrphostin AG 879] and tell me its recorded ΔTm on myoc-OLF (Homo sapiens, UniProt Q99972).
−0.8 ± 0.0 °C

Please look at O=c1cc(-c2ccc(O)cc2)oc2cc(O)cc(O)c12 [Apigenin, 4’,5,7-trihydroxyflavone] and tell me its recorded ΔTm on myoc-OLF (Homo sapiens, UniProt Q99972).
−0.3 ± 0.2 °C
